Molecular target: Fyn (UniProt P06241)
Sequence (P06241 whole entry, looked up): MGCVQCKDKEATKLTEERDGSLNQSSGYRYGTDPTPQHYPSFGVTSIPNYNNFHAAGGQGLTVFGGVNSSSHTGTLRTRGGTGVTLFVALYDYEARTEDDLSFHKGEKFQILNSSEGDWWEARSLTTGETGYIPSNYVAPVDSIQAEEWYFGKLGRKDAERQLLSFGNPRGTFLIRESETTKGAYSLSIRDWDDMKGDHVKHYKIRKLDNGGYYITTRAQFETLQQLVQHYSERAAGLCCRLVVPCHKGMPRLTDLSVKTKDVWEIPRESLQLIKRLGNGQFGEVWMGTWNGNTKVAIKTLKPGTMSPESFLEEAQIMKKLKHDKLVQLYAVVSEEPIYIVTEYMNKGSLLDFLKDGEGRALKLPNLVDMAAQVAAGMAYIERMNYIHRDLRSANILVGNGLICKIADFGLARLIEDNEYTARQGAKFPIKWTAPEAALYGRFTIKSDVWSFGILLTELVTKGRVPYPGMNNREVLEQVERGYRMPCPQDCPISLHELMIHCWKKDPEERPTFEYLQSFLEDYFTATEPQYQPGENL
Experiment: phosphorylation enrichment, bacterial display (enrichment ratio); higher = better substrate or ligand; peptides without Tyr show the background
TEST READOUT: phosphorylation enrichment

Here's what some known entries look like.
{"RECORD SEQUENCE": "TIQDAYMHITS [ADCY10_Y318_A313T]", "phosphorylation enrichment": 0.51}
{"RECORD SEQUENCE": "PLQKTYNYNVL [SLC4A1_Y553]", "phosphorylation enrichment": 0.495}
{"RECORD SEQUENCE": "HKETGYVVERP [BCLAF1_Y466_L461H]", "phosphorylation enrichment": 0.497}
{"RECORD SEQUENCE": "FKIFRYTLNDN [FN1_Y1975_L1974R_YF]", "phosphorylation enrichment": 0.42}
{"RECORD SEQUENCE": "HYECKYVINAI [MAOA_Y268]", "phosphorylation enrichment": 0.507}

Any idea what its phosphorylation enrichment is? The sequence is GISDEYHVIRR [GCDH_Y398_H403R]
0.517

Any idea what its phosphorylation enrichment is? The sequence is RGFDTYFGFLL [ARSB_Y165_YF]
8.78

Any idea what its phosphorylation enrichment is? The sequence is SAEEDYMADAK [KCNT1_Y876]
0.652

----------
Target: EPHB1 (UniProt P54762)
Sequence (P54762 whole entry, looked up): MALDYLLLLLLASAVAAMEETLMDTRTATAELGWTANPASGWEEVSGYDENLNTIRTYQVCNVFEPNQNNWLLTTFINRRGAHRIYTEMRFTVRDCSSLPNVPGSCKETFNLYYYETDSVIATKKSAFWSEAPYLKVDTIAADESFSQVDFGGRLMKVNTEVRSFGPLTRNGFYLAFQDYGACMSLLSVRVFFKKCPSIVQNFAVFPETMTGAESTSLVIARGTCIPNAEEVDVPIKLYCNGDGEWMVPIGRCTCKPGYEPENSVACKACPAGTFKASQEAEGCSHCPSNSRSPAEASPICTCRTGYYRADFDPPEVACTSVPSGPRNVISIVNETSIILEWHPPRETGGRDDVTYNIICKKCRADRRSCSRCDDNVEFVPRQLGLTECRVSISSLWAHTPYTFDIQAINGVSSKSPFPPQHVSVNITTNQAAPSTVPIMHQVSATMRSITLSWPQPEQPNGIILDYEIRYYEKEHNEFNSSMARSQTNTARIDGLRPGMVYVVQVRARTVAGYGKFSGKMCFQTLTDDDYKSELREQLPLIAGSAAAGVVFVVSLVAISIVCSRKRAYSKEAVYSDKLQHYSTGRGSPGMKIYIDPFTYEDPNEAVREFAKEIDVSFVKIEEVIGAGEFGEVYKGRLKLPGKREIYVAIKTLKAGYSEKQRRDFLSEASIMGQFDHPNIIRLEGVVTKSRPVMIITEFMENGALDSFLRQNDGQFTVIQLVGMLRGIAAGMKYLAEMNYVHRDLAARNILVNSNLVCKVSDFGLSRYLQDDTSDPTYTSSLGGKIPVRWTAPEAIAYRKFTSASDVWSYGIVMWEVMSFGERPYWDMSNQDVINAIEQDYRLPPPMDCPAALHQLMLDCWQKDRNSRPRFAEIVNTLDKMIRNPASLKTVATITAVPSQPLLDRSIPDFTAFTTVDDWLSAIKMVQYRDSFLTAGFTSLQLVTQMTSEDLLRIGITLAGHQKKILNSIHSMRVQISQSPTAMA
Experiment: phosphorylation enrichment, bacterial display (enrichment ratio); higher = better substrate or ligand; peptides without Tyr show the background
TEST READOUT: phosphorylation enrichment
The answer should be a number; do not append a unit.

Here's what some known entries look like.
{"RECORD SEQUENCE": "GVIRHYVVCST [BTK_Y334]", "TEST READOUT": "phosphorylation enrichment", "MEASURED RESULT": 0.68}
{"RECORD SEQUENCE": "CEHFSYFGMKA [SLC15A2_Y60_R57H_YF]", "TEST READOUT": "phosphorylation enrichment", "MEASURED RESULT": 0.555}

Any idea what its phosphorylation enrichment is? The sequence is RRQDLYSARDL [SART1_Y249]
0.576

Any idea what its phosphorylation enrichment is? The sequence is SLNAVYPKAGS [OAS3_Y376_R378K]
0.296

----------
Biological target: c-Src SH2;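 also: peptide library displayed on the E. coli surface as eCPX fusions, selected cells deep-sequenced, score is each peptide's frequency after selection divided by its frequency in the input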
Assay: SH2 binding enrichment of the phosphorylated peptide, bacterial display (enrichment ratio); higher = better substrate or ligand; peptides without Tyr show the background
Property: SH2 binding enrichment; scope: individual sequences
The answer should be a number; do not append a unit.

Here's what some known entries look like.
{"RECORD SEQUENCE": "SIKDKYVTALC [KCNH2_Y611_Y616C]", "ASSAYED TARGET": "c-Src SH2", "MEASURED RESULT": 0.555}
{"RECORD SEQUENCE": "IENPQYFSDAC [NTRK1_Y496]", "ASSAYED TARGET": "c-Src SH2", "MEASURED RESULT": 0.524}
{"RECORD SEQUENCE": "IYRAAYFGVYD [SLC25A4_Y191]", "ASSAYED TARGET": "c-Src SH2", "MEASURED RESULT": 2.12}
{"RECORD SEQUENCE": "DGKFSYLKVGH [GRM3_Y480_G475D_YF]", "ASSAYED TARGET": "c-Src SH2", "MEASURED RESULT": 0.421}
{"RECORD SEQUENCE": "HNLPIYEGFAL [ACTA1_Y168_V165L_YF]", "ASSAYED TARGET": "c-Src SH2", "MEASURED RESULT": 0.579}
{"RECORD SEQUENCE": "REEKNYKLKET [BCLAF1_Y459]", "ASSAYED TARGET": "c-Src SH2", "MEASURED RESULT": 0.627}
{"RECORD SEQUENCE": "TDKLFYIYTPG [SLC27A4_Y243_S247P]", "ASSAYED TARGET": "c-Src SH2", "MEASURED RESULT": 0.383}
{"RECORD SEQUENCE": "NPSYNYEIVNQ [DYNC1H1_Y3379_R3384Q]", "ASSAYED TARGET": "c-Src SH2", "MEASURED RESULT": 0.642}
{"RECORD SEQUENCE": "GTVRDYPDFNP [ANXA3_Y15_S19N]", "ASSAYED TARGET": "c-Src SH2", "MEASURED RESULT": 0.536}
{"RECORD SEQUENCE": "SLNAVYPRAGR [OAS3_Y376_S381R]", "ASSAYED TARGET": "c-Src SH2", "MEASURED RESULT": 0.466}

Any idea what its SH2 binding enrichment is? The sequence is SVTCTYSPALK [TP53_Y126_N131K]
0.523

Any idea what its SH2 binding enrichment is? The sequence is PIAPVYAASMV [ACAT1_Y331]
0.506

Any idea what its SH2 binding enrichment is? The sequence is VIKDKYPQARF [APTX_Y209_K211Q_YF]
0.562

Any idea what its SH2 binding enrichment is? The sequence is DYLEKYYKFGC [NNMT_Y24_S29C]
0.581

Numbers sourced from the supplement of paper PMC10065799.
